system: Fibroblast; assay: Multiplex assay against human fibroblast; format: toxicity, cell-based; details: 12 h, 1 µM, compound concentration 1 uM, replicate 1
Below, each entry is listed with its recorded Population Apoptotic (%).
Field format: number, assumed %, no unit text.

[[record]]
compound = "CN(C)C(=O)Cn1cc(-c2ccc(-c3cncc4ccccc34)cc2)cn1"
experimental_readout = "Population Apoptotic (%)"
measure_unit = "%"
value_measured = 47


### Prompt # query: Population Apoptotic (%) of entry CCCCCC(O)/C=C/[C@H]1C(=O)CC(O)C1C/C=C\CCCC(=O)O (stereo partly specified)
### Response 52

### Prompt Which value of Population Apoptotic (%) has been reported for "COc1cccc2c1c(NS(=O)(=O)c1ccc(Cl)s1)nn2Cc1cccc(CNC(=O)C(C)(C)O)c1" in the records?
### Response 43

### Prompt I'd like to know its Population Apoptotic (%). The compound in question is O=C(NCCN1CCC(n2c(=O)[nH]c3cc(Cl)ccc32)CC1)c1ccc(F)cc1 [HALOPEMIDE]
### Response 32

### Prompt Need Population Apoptotic (%) of "N#Cc1cc(F)cc(-c2nc(-c3ccc(F)cn3)no2)c1" , thanks.
### Response 28

### Prompt State the recorded Population Apoptotic (%) for this entry: Br.CS(=O)(=O)Nc1c(O)ccc2c1CCCC2C1=NCCN1 (stereo unspecified)
### Response 17
